Just for reference, patent US9433211B2 is where these values come from.

These records show MIC for yeast (C. albicans, NBRC1594).
readout-type: MIC (µg/mL)

I = CCCCCCC(O)CO (centres unmarked) [Comparative product 3, 1,2-octanediol, reference compound]
II = CCCCCCCCC(O)CC(=O)OCC(C)O (centres unmarked)
Hi team, can someone confirm which has the larger MIC: I or II ? Thanks. Lab note: record the label of whichever item you select.
I
(I: 2500 µg/mL, II: 312 µg/mL)

----------
These records show MIC for yeast (C. albicans, NBRC1594).
readout-type: MIC (µg/mL)

I = CCCCCCCC(O)CC(=O)OCC(C)O (stereo not drawn)
II = CCCCCCCCCC(O)CC(=O)OCCCO (stereo not drawn)
III = CCCCCCCC(O)CC(=O)O.[K] (stereo not drawn) [Comparative product 2, β-hydroxydecanoic acid potassium, reference compound]
Please arrange the 3 molecules above from largest to smallest MIC value. Answer by listing the labels in the order asked for.
III, I, II
(III: 2500 µg/mL, I: 625 µg/mL, II: 312 µg/mL)

1 = CCCCCCCCC(O)CC(=O)OCCCO (stereo not drawn)
2 = CCCCCCCC(O)CC(=O)OCCCO (stereo not drawn)
Hi team, can someone confirm which has the larger MIC: 1 or 2 ? Thanks. Lab note: record the label of whichever item you select.
2
